System Tested: T1, PABPN1 CCRRM fragment (coiled coil + RRM) (UniProt Q86U42 114-254)
T1 sequence: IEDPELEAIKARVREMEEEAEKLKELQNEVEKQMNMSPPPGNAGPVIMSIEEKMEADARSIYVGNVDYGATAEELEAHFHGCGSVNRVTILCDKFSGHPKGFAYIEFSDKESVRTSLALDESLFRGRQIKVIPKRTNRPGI
Test Summary: BLI; kon 3.589e-5 (so in the source), koff 1.34e-3 s-1; room temperature; EMSA and SHAPE: 10 mM Tris-HCl pH 8.0, 25 mM KCl, 10 mM NaCl, 1 mM MgCl2, 10% glycerol, 0.5 mM DTT, 25 C, 20 min (1M7 step at 35 C); BLI: room temperature, 0.5
Study Conditions: protein: recombinant; tags: Trx and His (Ni-NTA) fusion, pET-MG vector; label: 5' biotin
pKd: −log10 of the molar value.
Metric Name: pKd

> print(dat)
                binder  test.value
1  AAAAAA (ssRNA) [A6]        8.47
